Measured On: G-CSFR (Homo sapiens, UniProt Q99062)
Sequence (Q99062 25-836): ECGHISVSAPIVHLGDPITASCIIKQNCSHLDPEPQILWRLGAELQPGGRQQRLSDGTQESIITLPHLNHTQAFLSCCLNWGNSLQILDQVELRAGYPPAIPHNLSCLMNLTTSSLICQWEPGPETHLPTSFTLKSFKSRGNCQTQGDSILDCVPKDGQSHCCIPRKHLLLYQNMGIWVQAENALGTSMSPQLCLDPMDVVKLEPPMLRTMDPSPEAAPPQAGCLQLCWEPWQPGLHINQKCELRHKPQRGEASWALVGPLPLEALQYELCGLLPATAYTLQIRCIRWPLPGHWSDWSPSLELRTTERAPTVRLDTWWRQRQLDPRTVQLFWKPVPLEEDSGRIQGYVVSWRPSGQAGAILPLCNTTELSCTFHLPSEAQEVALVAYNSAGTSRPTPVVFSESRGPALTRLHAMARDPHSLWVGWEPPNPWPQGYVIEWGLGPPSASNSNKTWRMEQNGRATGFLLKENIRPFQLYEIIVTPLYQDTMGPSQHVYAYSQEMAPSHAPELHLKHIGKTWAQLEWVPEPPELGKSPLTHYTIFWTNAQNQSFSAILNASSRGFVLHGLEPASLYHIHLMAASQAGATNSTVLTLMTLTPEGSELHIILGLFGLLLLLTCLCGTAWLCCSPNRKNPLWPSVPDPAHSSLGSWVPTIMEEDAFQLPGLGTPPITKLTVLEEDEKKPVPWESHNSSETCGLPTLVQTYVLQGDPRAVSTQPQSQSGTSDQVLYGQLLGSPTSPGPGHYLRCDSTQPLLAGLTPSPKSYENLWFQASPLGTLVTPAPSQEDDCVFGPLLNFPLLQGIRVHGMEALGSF
Assay Notes: G-CSF competition binding assay (125I labeled G-CSF, immobilized G-CSFR in microtiter wells)
Parameters: made in house
Protocol Conditions: reduction of bound 125I labeled G-CSF; overnight at 4° C.

>  <Input Sequence>
CQRAGYMLAC [Example 8]

>  <Competitive Binding?>
No

$$$$
>  <Input Sequence>
CNREIEAMCC [Example 2]

>  <Competitive Binding?>
Yes

$$$$
>  <Input Sequence>
CPDWYQSYMC [Example 12]

>  <Competitive Binding?>
Yes

$$$$
>  <Input Sequence>
CVPWMFYDLC [Example 6]

>  <Competitive Binding?>
No

$$$$
>  <Input Sequence>
CPHWTSYYMC [Example 13]

>  <Competitive Binding?>
Yes

$$$$
>  <Input Sequence>
CDPWMFYDLC [Example 7]

>  <Competitive Binding?>
No

$$$$
